List of pEC50 values.
Tested target: T1, Human TROP2 ECD (31-274 AA), biotinylated (human, UniProt P09758 31-274, biotinylated (site not stated))
T1 construct: also called tumor-associated calcium signal transducer 2; Human TROP2-biotin
T1 sequence: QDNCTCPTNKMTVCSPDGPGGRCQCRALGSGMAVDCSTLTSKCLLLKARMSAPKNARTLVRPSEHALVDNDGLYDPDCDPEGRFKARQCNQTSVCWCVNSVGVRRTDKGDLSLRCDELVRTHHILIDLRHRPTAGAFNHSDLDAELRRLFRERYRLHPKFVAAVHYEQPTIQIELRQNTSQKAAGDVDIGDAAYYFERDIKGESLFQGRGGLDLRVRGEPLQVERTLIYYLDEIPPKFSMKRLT
Procedure text: ELISA: biotinylated TROP2 captured on neutravidin plate, Fab titrated, HRP secondary antibody
Scale: pEC50 equals -log10([C]), with [C] in mol/L.

In the examples that follow, each entry is paired with its recorded pEC50.
1) TBD-21 (anti-TROP2 Fab, HC F108A) (Fab, V domains shown, also called TBD-21 (HC F108A mutant)) VH: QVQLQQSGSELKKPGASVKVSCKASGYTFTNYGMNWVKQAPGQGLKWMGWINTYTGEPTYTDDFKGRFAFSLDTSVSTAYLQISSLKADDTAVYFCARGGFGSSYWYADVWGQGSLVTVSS VL: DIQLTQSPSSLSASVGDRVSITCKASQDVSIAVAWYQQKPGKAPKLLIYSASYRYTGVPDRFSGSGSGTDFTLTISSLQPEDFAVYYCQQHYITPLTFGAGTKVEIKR | 8.39
2) TBD-15 (anti-TROP2 Fab, HC G102A) (Fab, V domains shown) VH: QVQLQQSGSELKKPGASVKVSCKASGYTFTNYGMNWVKQAPGQGLKWMGWINTYTGEPTYTDDFKGRFAFSLDTSVSTAYLQISSLKADDTAVYFCARGGFASSYWYFDVWGQGSLVTVSS VL: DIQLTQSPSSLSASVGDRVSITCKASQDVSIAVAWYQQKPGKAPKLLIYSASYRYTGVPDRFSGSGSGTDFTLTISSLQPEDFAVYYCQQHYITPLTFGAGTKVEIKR | 7.14
3) TBD-20 (anti-TROP2 Fab, HC Y107A) (Fab, V domains shown) VH: QVQLQQSGSELKKPGASVKVSCKASGYTFTNYGMNWVKQAPGQGLKWMGWINTYTGEPTYTDDFKGRFAFSLDTSVSTAYLQISSLKADDTAVYFCARGGFGSSYWAFDVWGQGSLVTVSS VL: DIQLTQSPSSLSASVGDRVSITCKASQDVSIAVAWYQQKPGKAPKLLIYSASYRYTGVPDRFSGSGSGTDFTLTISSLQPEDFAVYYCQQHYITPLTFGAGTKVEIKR | 7.28
4) TBD-22 (anti-TROP2 Fab, HC D109A) (Fab, V domains shown, also called TBD-22 (HC D109A mutant)) VH: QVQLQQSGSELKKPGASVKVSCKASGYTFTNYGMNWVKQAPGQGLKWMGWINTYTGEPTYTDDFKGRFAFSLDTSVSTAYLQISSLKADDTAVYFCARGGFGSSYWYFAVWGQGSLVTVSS VL: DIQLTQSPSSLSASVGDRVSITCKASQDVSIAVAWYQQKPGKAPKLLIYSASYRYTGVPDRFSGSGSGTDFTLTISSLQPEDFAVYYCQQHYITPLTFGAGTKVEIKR | 8.96
5) TBD-18 (anti-TROP2 Fab, HC Y105A) (Fab, V domains shown) VH: QVQLQQSGSELKKPGASVKVSCKASGYTFTNYGMNWVKQAPGQGLKWMGWINTYTGEPTYTDDFKGRFAFSLDTSVSTAYLQISSLKADDTAVYFCARGGFGSSAWYFDVWGQGSLVTVSS VL: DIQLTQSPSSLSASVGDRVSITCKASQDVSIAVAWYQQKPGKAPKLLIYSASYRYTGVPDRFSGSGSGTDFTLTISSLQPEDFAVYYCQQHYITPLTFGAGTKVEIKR | 6.10
6) TBD-16 (anti-TROP2 Fab, HC S103A) (Fab, V domains shown) VH: QVQLQQSGSELKKPGASVKVSCKASGYTFTNYGMNWVKQAPGQGLKWMGWINTYTGEPTYTDDFKGRFAFSLDTSVSTAYLQISSLKADDTAVYFCARGGFGASYWYFDVWGQGSLVTVSS VL: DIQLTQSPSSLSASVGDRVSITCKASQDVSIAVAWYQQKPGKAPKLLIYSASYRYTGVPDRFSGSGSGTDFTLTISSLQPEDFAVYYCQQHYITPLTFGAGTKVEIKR | 9.75

Prompt line: Item under review: TBD-14 (anti-TROP2 Fab, HC F101A) (Fab, V domains shown) VH: QVQLQQSGSELKKPGASVKVSCKASGYTFTNYGMNWVKQAPGQGLKWMGWINTYTGEPTYTDDFKGRFAFSLDTSVSTAYLQISSLKADDTAVYFCARGGAGSSYWYFDVWGQGSLVTVSS VL: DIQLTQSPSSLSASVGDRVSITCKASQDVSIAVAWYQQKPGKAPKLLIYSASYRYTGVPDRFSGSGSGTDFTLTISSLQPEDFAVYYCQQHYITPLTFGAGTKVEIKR . Reported pEC50?
Response line: 7.41

Prompt line: Item under review: TBD-23 (anti-TROP2 Fab, HC V110A) (Fab, V domains shown) VH: QVQLQQSGSELKKPGASVKVSCKASGYTFTNYGMNWVKQAPGQGLKWMGWINTYTGEPTYTDDFKGRFAFSLDTSVSTAYLQISSLKADDTAVYFCARGGFGSSYWYFDAWGQGSLVTVSS VL: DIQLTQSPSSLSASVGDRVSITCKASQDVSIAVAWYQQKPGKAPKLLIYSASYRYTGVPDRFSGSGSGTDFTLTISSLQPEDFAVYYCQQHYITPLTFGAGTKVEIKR . Reported pEC50?
Response line: 9.63

Prompt line: Item under review: TBD-19 (anti-TROP2 Fab, HC W106A) (Fab, V domains shown) VH: QVQLQQSGSELKKPGASVKVSCKASGYTFTNYGMNWVKQAPGQGLKWMGWINTYTGEPTYTDDFKGRFAFSLDTSVSTAYLQISSLKADDTAVYFCARGGFGSSYAYFDVWGQGSLVTVSS VL: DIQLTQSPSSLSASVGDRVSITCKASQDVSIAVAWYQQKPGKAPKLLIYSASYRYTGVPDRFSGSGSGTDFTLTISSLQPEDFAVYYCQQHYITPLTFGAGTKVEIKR . Reported pEC50?
Response line: 6.15

Prompt line: Item under review: TBD-17 (anti-TROP2 Fab, HC S104A) (Fab, V domains shown, also called TBD-17 (HC S104A mutant)) VH: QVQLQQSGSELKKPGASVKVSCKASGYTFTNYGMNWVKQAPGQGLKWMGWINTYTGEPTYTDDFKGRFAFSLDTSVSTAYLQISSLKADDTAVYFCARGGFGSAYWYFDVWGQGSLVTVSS VL: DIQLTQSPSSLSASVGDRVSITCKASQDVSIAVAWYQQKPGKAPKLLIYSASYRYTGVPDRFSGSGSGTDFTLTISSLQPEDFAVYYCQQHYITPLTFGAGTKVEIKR . Reported pEC50?
Response line: 9.36
